- Assayed Target: CDK9 (Homo sapiens, UniProt P50750)
- Construct: NCIH211 cells with endogenously tagged N-terminal CDK9-HiBit; endogenous in cells; host or cells: NCIH211 cells (endogenous CDK9 locus tagged with HiBit)
- Sequence (P50750 whole entry): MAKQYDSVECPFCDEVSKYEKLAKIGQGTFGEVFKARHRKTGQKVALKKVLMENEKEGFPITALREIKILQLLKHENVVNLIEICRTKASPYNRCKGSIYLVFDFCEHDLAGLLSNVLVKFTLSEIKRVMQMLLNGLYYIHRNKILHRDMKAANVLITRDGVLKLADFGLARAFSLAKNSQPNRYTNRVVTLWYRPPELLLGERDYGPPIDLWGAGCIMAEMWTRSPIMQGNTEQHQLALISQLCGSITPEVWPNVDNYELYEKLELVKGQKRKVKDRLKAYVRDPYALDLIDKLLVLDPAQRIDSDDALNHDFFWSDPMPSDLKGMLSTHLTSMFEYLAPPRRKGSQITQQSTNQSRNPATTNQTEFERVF
- Sequence (O60563 whole entry partner): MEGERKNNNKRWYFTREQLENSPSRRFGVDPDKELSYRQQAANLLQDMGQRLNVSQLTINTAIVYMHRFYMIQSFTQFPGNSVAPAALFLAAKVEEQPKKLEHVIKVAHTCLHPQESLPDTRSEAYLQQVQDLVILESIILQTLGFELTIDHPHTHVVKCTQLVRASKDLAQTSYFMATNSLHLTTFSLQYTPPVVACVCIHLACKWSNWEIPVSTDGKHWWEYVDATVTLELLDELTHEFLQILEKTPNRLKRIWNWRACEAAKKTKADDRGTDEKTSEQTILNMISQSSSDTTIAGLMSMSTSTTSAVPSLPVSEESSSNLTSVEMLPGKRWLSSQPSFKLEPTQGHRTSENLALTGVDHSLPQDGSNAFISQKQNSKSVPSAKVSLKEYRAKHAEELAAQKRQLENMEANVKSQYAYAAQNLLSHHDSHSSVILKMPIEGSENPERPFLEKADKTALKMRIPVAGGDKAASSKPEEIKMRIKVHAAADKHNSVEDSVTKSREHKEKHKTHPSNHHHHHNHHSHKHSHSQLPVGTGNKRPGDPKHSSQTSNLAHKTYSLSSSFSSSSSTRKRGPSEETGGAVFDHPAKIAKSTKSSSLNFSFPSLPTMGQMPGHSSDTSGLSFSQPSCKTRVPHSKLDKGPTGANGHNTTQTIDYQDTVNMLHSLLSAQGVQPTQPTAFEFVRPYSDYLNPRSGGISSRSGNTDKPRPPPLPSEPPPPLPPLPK
- Assay: CDK9 degradation by HiBit assay, NCIH211 cells
- Type: cell-based
- Condition Description: NCIH211 cells with endogenously tagged N-terminal CDK9-HiBit, 24 hours incubation; read-out: HiBit-NCIH211.2 DC50
Measured Property: DC50

These solved cases illustrate the format of a correct answer.
Ask | Request the reported DC50 associated with CCC(CC)c1cc(N[C@H]2CC[C@H](NCC(=O)NCCCc3cn(CCOCCNc4cccc5c4C(=O)N(C4CCC(=O)NC4=O)C5=O)nn3)C2)n2nccc2n1 (some centres unmarked)
Reply | > 10 µM

Ask | Request the reported DC50 associated with `CCC(CC)c1cc(N[C@H]2CC[C@H](NCC(=O)NCc3cn(CCOCCOCCOCC(=O)N[C@H](C(=O)N4C[C@H](O)C[C@H]4C(=O)NCc4ccc(-c5scnc5C)cc4)C(C)(C)C)nn3)C2)n2nccc2n1`
Reply | > 10 µM

Ask | Request the reported DC50 associated with CCC(CC)c1cc(N[C@H]2CC[C@H](NCCOCCOCCOCCn3cc(CNc4cccc5c4C(=O)N(C4CCC(=O)NC4=O)C5=O)nn3)C2)n2ncc(Cl)c2n1 (some centres unmarked)
Reply | > 10 µM

Ask | Request the reported DC50 associated with CCC(CC)c1cc(N[C@H]2CC[C@H](NCCOCCOCCOCCOCCNc3cccc4c3C(=O)N(C3CCC(=O)NC3=O)C4=O)C2)n2ncc(Cl)c2n1 (some centres unmarked)
Reply | < 10 µM

Ask | Request the reported DC50 associated with CCC(CC)c1cc(N[C@H]2CC[C@H](NCCN3CCN(CCNc4cccc5c4C(=O)N(C4CCC(=O)NC4=O)C5=O)CC3)C2)n2nccc2n1 (some centres unmarked)
Reply | < 10 µM

Ask | Request the reported DC50 associated with CCC(CC)c1cc(N[C@H]2CC[C@H](NCC(=O)N3CCN(CCCNc4cccc5c4C(=O)N(C4CCC(=O)NC4=O)C5=O)CC3)C2)n2nccc2n1 (some centres unmarked)
Reply | < 1 µM

Ask | Request the reported DC50 associated with CCC(CC)c1cc(N[C@H]2CC[C@H](NCCOCCOCCOCCn3cc(CNc4cccc5c4C(=O)N(C4CCC(=O)NC4=O)C5=O)nn3)C2)n2nccc2n1 (some centres unmarked)
Reply | > 10 µM

Ask | Request the reported DC50 associated with `CCC(CC)c1cc(N[C@H]2CC[C@H](NCC(=O)NCCCc3cn(CCOCCOc4cc(-c5scnc5C)ccc4CNC(=O)[C@@H]4C[C@@H](O)CN4C(=O)[C@H](C(C)C)N4Cc5ccccc5C4=O)nn3)C2)n2ncc(Cl)c2n1`
Reply | > 10 µM

Ask | Request the reported DC50 associated with `CCC(CC)c1cc(N[C@H]2CC[C@H](NCC(=O)NCc3cn(CCOCCOCCOCCOCCOc4cc(-c5scnc5C)ccc4CNC(=O)[C@@H]4C[C@@H](O)CN4C(=O)[C@H](C(C)C)N4Cc5ccccc5C4=O)nn3)C2)n2nccc2n1`
Reply | > 10 µM

Ask | Request the reported DC50 associated with C/C=C(\CC)c1cc(N[C@H]2CC[C@H](NCC(=O)N3CCN(CCNc4cccc5c4C(=O)N(C4CCC(=O)NC4=O)C5=O)CC3)C2)n2ncc(Cl)c2n1 (some centres unmarked)
Reply | < 0.1 µM

Here is another compound to look at.
Ask | Request the reported DC50 associated with CCC(CC)c1cc(N[C@H]2CC[C@H](NCCOCCOCCOCCNc3cccc4c3C(=O)N(C3CCC(=O)NC3=O)C4=O)C2)n2ncc(Cl)c2n1 (some centres unmarked)
Reply | < 10 µM

###

DC50 values, listed per item
- Assayed Target: CDK9 (Homo sapiens, UniProt P50750)
- Construct: NCIH211 cells with endogenously tagged N-terminal CDK9-HiBit; endogenous in cells; host or cells: NCIH211 cells (endogenous CDK9 locus tagged with HiBit)
- Assay: CDK9 degradation by HiBit assay, NCIH211 cells
- Type: cell-based
- Condition Description: NCIH211 cells with endogenously tagged N-terminal CDK9-HiBit, 24 hours incubation; read-out: HiBit-NCIH211.2 DC50

These solved cases illustrate the format of a correct answer.
Ask | Request the reported DC50 associated with CCC(CC)c1cc(N[C@H]2CC[C@H](NCC(=O)NCCCn3cc(CCOCCNc4cccc5c4C(=O)N(C4CCC(=O)NC4=O)C5=O)nn3)C2)n2nccc2n1 (stereo partly shown)
Reply | > 10 µM

Ask | Request the reported DC50 associated with CCC(CC)c1cc(N[C@H]2CC[C@H](NCC(=O)N3CCN(CCNc4cccc5c4C(=O)N(C4CCC(=O)NC4=O)C5=O)CC3)C2)n2nccc2n1 (stereo partly shown)
Reply | < 1 µM

Ask | Request the reported DC50 associated with `CCC(CC)c1cc(N[C@H]2CC[C@H](NCC(=O)NCc3cn(CCOCCOCC(=O)N[C@H](C(=O)N4C[C@H](O)C[C@H]4C(=O)NCc4ccc(-c5scnc5C)cc4)C(C)(C)C)nn3)C2)n2nccc2n1`
Reply | > 10 µM

Ask | Request the reported DC50 associated with CCC(CC)c1cc(N[C@H]2CC[C@H](NCC(=O)N3CCN(CCCCNc4cccc5c4C(=O)N(C4CCC(=O)NC4=O)C5=O)CC3)C2)n2nccc2n1 (stereo partly shown)
Reply | < 1 µM

Ask | Request the reported DC50 associated with `CCC(CC)c1cc(N[C@H]2CC[C@H](NCC(=O)NCc3cn(CCOCC(=O)N[C@H](C(=O)N4C[C@H](O)C[C@H]4C(=O)NCc4ccc(-c5scnc5C)cc4)C(C)(C)C)nn3)C2)n2nccc2n1`
Reply | > 10 µM

Ask | Request the reported DC50 associated with `CCC(CC)c1cc(N[C@H]2CC[C@H](NCc3cn(CCOCCOCCOCCOCCOc4cc(-c5scnc5C)ccc4CNC(=O)[C@@H]4C[C@@H](O)CN4C(=O)[C@H](C(C)C)N4Cc5ccccc5C4=O)nn3)C2)n2nccc2n1`
Reply | > 10 µM

Ask | Request the reported DC50 associated with `CCC(CC)c1cc(N[C@H]2CC[C@H](NCCN3CCN(CCOCC(=O)N[C@H](C(=O)N4C[C@H](O)C[C@H]4C(=O)NCc4ccc(-c5scnc5C)cc4)C(C)(C)C)CC3)C2)n2nccc2n1`
Reply | > 10 µM

Ask | Request the reported DC50 associated with CCC(CC)c1cc(N[C@H]2CC[C@H](NCc3cn(CCOCCOCCNc4cccc5c4C(=O)N(C4CCC(=O)NC4=O)C5=O)nn3)C2)n2nccc2n1 (stereo partly shown)
Reply | < 10 µM

More entries:
Ask | Request the reported DC50 associated with `CCC(CC)c1cc(N[C@H]2CC[C@H](NCc3cn(CCOCCOCC(=O)N[C@H](C(=O)N4C[C@H](O)C[C@H]4C(=O)NCc4ccc(-c5scnc5C)cc4)C(C)(C)C)nn3)C2)n2nccc2n1`
Reply | > 10 µM

Ask | Request the reported DC50 associated with CCC(CC)c1cc(N[C@H]2CC[C@H](NCC(=O)NCCCn3cc(CCOCCNc4cccc5c4C(=O)N(C4CCC(=O)NC4=O)C5=O)nn3)C2)n2ncc(Cl)c2n1 (stereo partly shown)
Reply | < 1 µM

###

DC50 values, listed per item
- Assayed Target: CDK9 (Homo sapiens)
- Construct: NCIH211 cells with endogenously tagged N-terminal CDK9-HiBit; endogenous in cells; host or cells: NCIH211 cells (endogenous CDK9 locus tagged with HiBit)
- Assay: CDK9 degradation by HiBit assay, NCIH1048 cells
- Format: cell-based
- Condition Description: NCIH1048 cells with endogenously tagged N-terminal CDK9-HiBit, 24 hours incubation; read-out: HiBit-NCIH1048.3 DC50

Ask | Request the reported DC50 associated with C/C=C(\CC)c1cc(N[C@H]2CC[C@H](NCC(=O)N3CCN(CCCNc4cccc5c4C(=O)N(C4CCC(=O)NC4=O)C5=O)CC3)C2)n2nccc2n1 (some centres unmarked)
Reply | < 100 nM

Ask | Request the reported DC50 associated with CCC(CC)c1cc(N[C@H]2CC[C@H](NCC(=O)N3CCN(CCCNc4cccc5c4C(=O)N(C4CCC(=O)NC4=O)C5=O)CC3)C2)n2nccc2n1 (some centres unmarked)
Reply | < 100 nM

Ask | Request the reported DC50 associated with `CCC(CC)c1cc(N[C@H]2CC[C@H](NCC(=O)NCCCc3cn(CCOCCOCCOCCOc4cc(-c5scnc5C)ccc4CNC(=O)[C@@H]4C[C@@H](O)CN4C(=O)[C@H](C(C)C)N4Cc5ccccc5C4=O)nn3)C2)n2ncc(Cl)c2n1`
Reply | < 10000 nM

Ask | Request the reported DC50 associated with CCC(CC)c1cc(N[C@H]2CC[C@H](NCC(=O)N3CCN(CCNc4cccc5c4C(=O)N(C4CCC(=O)NC4=O)C5=O)CC3)C2)n2nccc2n1 (some centres unmarked)
Reply | < 100 nM

Ask | Request the reported DC50 associated with CCC(CC)c1cc(N[C@H]2CC[C@H](NCC(=O)NCCOCCOCCOCCNc3cccc4c3C(=O)N(C3CCC(=O)NC3=O)C4=O)C2)n2nccc2n1 (some centres unmarked)
Reply | < 1000 nM
